Recorded pIC50 by entry
- measurement target: Bromodomain-containing protein 2 (Homo sapiens, UniProt P25440)
- Sequence (P25440 whole entry): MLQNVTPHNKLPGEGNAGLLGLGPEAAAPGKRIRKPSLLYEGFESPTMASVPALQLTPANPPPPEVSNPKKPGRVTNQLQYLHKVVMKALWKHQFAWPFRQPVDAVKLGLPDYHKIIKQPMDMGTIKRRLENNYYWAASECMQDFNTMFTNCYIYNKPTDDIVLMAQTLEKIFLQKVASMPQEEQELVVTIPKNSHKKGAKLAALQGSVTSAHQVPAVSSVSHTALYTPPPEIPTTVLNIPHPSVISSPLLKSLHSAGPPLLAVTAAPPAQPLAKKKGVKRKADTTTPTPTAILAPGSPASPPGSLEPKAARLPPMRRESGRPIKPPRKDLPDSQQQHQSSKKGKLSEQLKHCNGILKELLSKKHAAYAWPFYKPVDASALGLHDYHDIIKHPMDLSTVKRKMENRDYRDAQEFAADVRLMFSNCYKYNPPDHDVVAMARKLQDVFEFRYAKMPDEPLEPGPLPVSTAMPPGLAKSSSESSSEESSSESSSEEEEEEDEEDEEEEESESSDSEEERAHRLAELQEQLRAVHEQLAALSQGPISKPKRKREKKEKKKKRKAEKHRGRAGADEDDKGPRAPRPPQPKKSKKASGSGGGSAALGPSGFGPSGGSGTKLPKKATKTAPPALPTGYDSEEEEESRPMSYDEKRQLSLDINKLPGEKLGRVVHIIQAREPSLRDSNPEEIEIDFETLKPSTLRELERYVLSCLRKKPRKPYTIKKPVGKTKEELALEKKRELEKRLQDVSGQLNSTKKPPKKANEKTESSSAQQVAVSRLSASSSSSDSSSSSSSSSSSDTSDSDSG
- procedure summary: Inhibition of BRD2 BD2 (unknown origin) preincubated for 15 mins followed by peptide addition and measured after 60 mins by TR-FRET assay
pIC50: −log10 of the molar value.
property name: pIC50

CC(C)=C1C(=O)Nc2ccc(NS(=O)(=O)c3ccccc3Br)cc21 7.60
COc1ccc(Br)cc1S(=O)(=O)Nc1ccc2c(c1)C(=C(C)C)C(=O)N2 7.66
COc1ccccc1S(=O)(=O)Nc1ccc2c(c1)C(=C(C)C)C(=O)N2 7.74

###

- measurement target: Bromodomain-containing protein 4 (Homo sapiens)
- procedure summary: Inhibition of BRD4 BD1 (unknown origin) preincubated for 15 mins followed by peptide addition and measured after 60 mins by TR-FRET assay
pIC50: −log10 of the molar value.
property name: pIC50

CC(C)=C1C(=O)Nc2ccc(NS(=O)(=O)C3CCCCC3)cc21 7.66
CC(C)=C1C(=O)Nc2ccc(NS(=O)(=O)c3cc(F)ccc3F)cc21 7.25
COc1ccc(Br)cc1S(=O)(=O)Nc1ccc2c(c1)C(=C(C)C)C(=O)N2 7.64
CC(C)=C1C(=O)Nc2ccc(NS(=O)(=O)c3ccccc3Br)cc21 7.60
CC/C=C1\C(=O)Nc2ccc(NS(=O)(=O)c3ccccc3OC)cc21 6.94
